Data origin, for the record: the DeepSol protein solubility set

- ASSAY_REMARKS: soluble on expression in E. coli; label from the status in PepcDB or PDB records
READOUT_NAME: soluble on expression in E. coli

Known soluble on expression in E. coli results, listed for orientation:
[[record]]
macromolecule_sequence = "ADLPGKGITVNPVQSTITEETFQTLLVSRALEKLGYTVNKPSEVDYNVGYTSLASGDATFTAVNWTPLHDNMYEAAGGDKKFYREGVFVNGAAQGYLIDKKTADQYKITNIAQLKDPKIAKLFDTNGDGKADLTGCNPGWGCEGAINHQLAAYELTNTVTHNQGNYAAMMADTISRYKEGKPVFYYTWTPYWVSNELKPGKDVVWLQVPFSALPGDKNADTKLPNGANYGFPVSTMHIVANKAWAEKNPAAAKLFAIMQLPVADINAQNAIMHDGKASEGDIQGHVDGWIKAHQQQFDGWVNEALAAQK"
measurement = "soluble"

[[record]]
macromolecule_sequence = "TTTVGLVCKDGVVMATEKRATMGNFIASKAAKKIYQIADRMAMTTAGSVGDAQFLARIIKIEANLYEIRRERKPTVRAIATLTSNLLNSYRYFPYLVQLLIGGIDSEGKSIYSIDPIGGAIEEKDIVATGSGSLTAYGVLEDRFTPEIGVDEAVELAVRAIYSAMKRDSASGDGIDVVKITEDEFYQYSPEEVEQILAKFRK"
measurement = "soluble"

[[record]]
macromolecule_sequence = "SEKADEKTYDLRDPSQLVALFTENENEDFIKISLSKYIESLIQSHNMASYNIVFLYDETRSISRYHSNQIYEAASSATDKKDILLILHSGGGQIEPAYLISKTCKSLTKKKFVVGIPRRAKSAATLISLGADEIHMGLMSELGPIDPQIGGYPALGLSNALNTLAGLACRFPDSADMFAKYLTDNLNLKDLGYFERVSESASQYAERLLAGKKFPAPSTAQSLANHFVNHYKDHGFVIDSDEATNLLGSNIIKQNTAEYLFANELYKFLDFASF"
measurement = "not soluble"

[[record]]
macromolecule_sequence = "LESYLLDSERSKVIREMNETYTEFNYKETKKNLEGLASSLEHKYLVEASSLDEGLDEILTLHRLKVPGLLRISFLTTNLIELARETARDIMGRVRGWSKGNQVLRWLSCVFLHARNSLSK"
measurement = "not soluble"


Can you give me soluble on expression in E. coli for all of these, one by one?
1. MAHHHHHHMVVFINGLPVLTFELKNSLTKQTVADAVVQYQTDRNPAELLFQLGRCIAHVAVDDAEVRFCTHLTGKTSWFLPFNQGWNSGAGNPPNPNGLRTDYLWKQVLAKESLANIIENYAQVIEEEEEDTNGRKRRTRKQIFPRFHQLRTVRALMRRSRADGVGKRYLIQHSAGSGKSNTIAWLAHQLVELKTAADNTQAQFDSVIVITDRRALDAQIARTIKAYDHVASIYGHSESADELRTFLAPGQEDHRHHGAEVPVHPDELGGTL
2. GSMGDTKEQRILRYVQQNAKPGDPQSVLEAIDTYCTQKEWAMNVGDAKGQIMDAVIREYSPSLVLELGAYCGYSAVRMARLLQPGARLLTMEMNPDYAAITQQMLNFAGLQDKVTILNGASQDLIPQLKKKYDVDTLDMVFLDHWKDRYLPDTLLLEKCGLLRKGTVLLADNVIVPGTPDFLAYVRGSSSFECTHYSSYLEYMKVVDGLEKAIYQGPSSPDKS
3. AHHHHHHASAKWVCKICGYIYDEDAGDPDNGISPGTKFEELPDDWVCPICGAPKSEFEKLEDGSQGYSRRGNMMIILKPLIEVDLPEDFVDIIKAKLKGQTVKSGEIITVDILGKPIEFKVLYAEPSPVKVTQKTQIKFAKGNVFEVSLDFKAKDCIITDAFIVLTGESEVLILNHNFEEIRRIEFENLKKIVVKGDLVVLIGEEKVKILKLQ
4. HKCDITLQEIIKDLNSLTEQKTLCTELTVTDIFAASKNTTEKETFCRAATVLRQFYSHHEKDTRCLGATAQQFHRHKQLIRDLKRLDRNLWGLAGLNSCPVKEANQSTLENFLERLKTIMREKYSKCSS
5. MSKRCASDRDDKDSEPVKKPRFSIANILDEVEDEEDVEVDVEDVDDVDLSSIPSKSPERSRGRPKIGLKMKEGNLPIECKLEGSELWAKFFDLGTEMIITKSGRRMFPTVKVSFTNVILDALYYIFLDVVPVDSKRYRYIYNKSAWLTAGKAEPVPKNRYYLHPDSPFTGDQLLKHVISFEKTKLTNNEVDKTGHLILNSMHKYQPRIHIVQRQKANPLDPNKVVMSEEKHCTYTFPETQFMAVTAYQNQLITKLKIEKNPFAKGFRDPTGRSPDEMERSPGDMMLSNFYHSSALQQAMFQQCLSKTLQLNPSIMMLYQNVFPTGNSLPAAPTVPGNPAEISIKSE
6. AHHHHHHGSIPIAKPLIGEEEINAVIEVLKSGMLAHGKEVEAFEREFASYIGVKHGIAVVNGTAALDIALKALKIKPGDEIITTPFTFIASANAILFQGAKPVFADIDPKTYNLDPDEVLEKINEKTKAIIVVHLYGQPADMKAFKEIAEDYKLYLIEDCAQAHGAEFEGQKVGTFGDIAAFSFYPTKNMTTGEGGMVLTNDDELARRARLIRNHGQTEKYLHEELGYNLRMTNIAAALGRVQLRKLDKWNEIRIENAELLTKGIKRIKGLTPPYVDKRVKHVFHQYVIRVEDDFPLTRDELREKLMEKGIGTAVHYPMPVHHQPLYQRLGYSKDCCPNAIEASKRVLSLPVHPAVSKEDINYIIRTLEELG
7. SLSARSSHLSQPVVKSVLVYRNGDPFYAGRRVVIHEKKVSSFEVFLKEVTGGVQAPFGAVRNIYTPRTGHRIRKLDQIQSGGNYVAGGQEAFKKLNYLDIGEIKKRPMEVVNT
8. MRILVSNDDGIFSPGIKALGLAMRALGEVFVVAPDMEQSAVGHGITVRRPLRFKHTQSAGFGEIPAYRVDGTPADCVVLGVHLLGRPDLVVSGINLGVNLGLDLTHSGTVAAALEGASLGIPSIAFSLDTSGEVLDFQEAARWALAIARAVGERGLPPGVLLNVNFPASRPKGLLVTRLSTHRFEDQVVERLDPEGKPYYWIAGTPAGEEEEGTDLWAVRRGYVSVTPVSLDLTAHGFLEALSGLLEGVAP

Out:
not soluble
soluble
soluble
soluble
soluble
not soluble
soluble
soluble

----------
- ASSAY_REMARKS: soluble on expression in E. coli; label from the status in PepcDB or PDB records
READOUT_NAME: soluble on expression in E. coli

[[record]]
macromolecule_sequence = "MIVERVLYNIKDIDLEKLEVDFVDIEWYEVQKKILRKLSSNGIEVGIRNSNGEALKEGDVLWQEGNKVLVVRIPYCDCIVLKPQNMYEMGKTCYEMGNRHAPLFIDGDELMTPYDEPLMQALIKCGLSPYKKSCKLTTPLGGNLHGYSHSHSH"
readout_name = "soluble on expression in E. coli"
measurement = "not soluble"

[[record]]
macromolecule_sequence = "MGSDKIHHHHHHMTEATKTDFSKLNVYQKLAYVRQKAPYIQKSKRGQQYSYVGSSDVLSALNTVINQVGLILKPEIVAHQVRESQDEVWKADKVKKEPVAKKRTTYFTELELMMTWINIHNPSEIVACSWYSQGVDIEGEKGVGKALTYAEKYFLLKFFNIATDDDDPDKYQKEQLKNTTITERQIDMLNASISRVAELAGQEFEAVKSLAINDSDLNPKKAFEEYSAYDYGVISKLLAKWINFYESRQKVQEDKK"
readout_name = "soluble on expression in E. coli"
measurement = "not soluble"

[[record]]
macromolecule_sequence = "MNNILSEEVLNVTDFTTSRQLTLWKREDLQSPQLDDVAEEVPVALVYNGISHVVMMASPKDLTHFAMGFSLSEGIIDSPREIYGMDVVPSCNGLEVQIDLSSRRFMGLKARRRALAGRTGCGVCGVEQLNDIGKPVQPLPFSQTFNLGNLDRALKHLNDFQPTGKLTGCTHAAAWVMPSGELAGGHEDVGRHVALDKLLGRRATEGEEWRQGAALVSSRASYEMVQKSAMCGVEILFAVSAATTLAVEVAERCNLTLVGFCKPGRATIYTHPQRLIADLEHHHHHH"
readout_name = "soluble on expression in E. coli"
measurement = "not soluble"


----------
- ASSAY_REMARKS: soluble on expression in E. coli; label from the status in PepcDB or PDB records
READOUT_NAME: soluble on expression in E. coli

[[record]]
macromolecule_sequence = "MGSDKIHHHHHHMQNWLKQITTGAMIGTTVLVTSACTMRLSESTFIASDEVPVAFTAEFTQQLQQAMPNHLITPLSLEASDHVKLNGFYIDNPNSLTTLVFYQGNGMKIEPHGLSVLTTLSTLNTDILVMDRRGLGASEGQPSINNIIADAQQQLDYLHQQYQPEKVILHGYSLGSFIAADLAKNNKIDALILHGSATNADDWVDEKTPWYMAPFMTLEMPEDFRKTDNKQVVAQYYQGPLLVIAAEEDEEVPPELSEKLFVASQSANKQLIMVPNVGHQGMLDDANTMSQYQTFITEL"
readout_name = "soluble on expression in E. coli"
measurement = "not soluble"

[[record]]
macromolecule_sequence = "MKKPNHSGSGQIRIIGGQWRGRKLPVPDSPGLRPTTDRVRETLFNWLAPVIVDAQCLDCFAGSGALGLEALSRYAAGATLIEMDRVVSQQLIKNLATLKAGNARVVNSNAMSFLAQKGTPHNIVFVDPPFRRGLLEETINLLEDNGWLADEALIYVESEVENGLPTVPANWSLHREKVAGQVAYRLYQHEAQGESDAD"
readout_name = "soluble on expression in E. coli"
measurement = "not soluble"

